# TEST_SYSTEM: KCNT1 (KNa1.1, Slack) (Homo sapiens, UniProt Q5JUK3)
# Sequence (Q5JUK3 whole entry): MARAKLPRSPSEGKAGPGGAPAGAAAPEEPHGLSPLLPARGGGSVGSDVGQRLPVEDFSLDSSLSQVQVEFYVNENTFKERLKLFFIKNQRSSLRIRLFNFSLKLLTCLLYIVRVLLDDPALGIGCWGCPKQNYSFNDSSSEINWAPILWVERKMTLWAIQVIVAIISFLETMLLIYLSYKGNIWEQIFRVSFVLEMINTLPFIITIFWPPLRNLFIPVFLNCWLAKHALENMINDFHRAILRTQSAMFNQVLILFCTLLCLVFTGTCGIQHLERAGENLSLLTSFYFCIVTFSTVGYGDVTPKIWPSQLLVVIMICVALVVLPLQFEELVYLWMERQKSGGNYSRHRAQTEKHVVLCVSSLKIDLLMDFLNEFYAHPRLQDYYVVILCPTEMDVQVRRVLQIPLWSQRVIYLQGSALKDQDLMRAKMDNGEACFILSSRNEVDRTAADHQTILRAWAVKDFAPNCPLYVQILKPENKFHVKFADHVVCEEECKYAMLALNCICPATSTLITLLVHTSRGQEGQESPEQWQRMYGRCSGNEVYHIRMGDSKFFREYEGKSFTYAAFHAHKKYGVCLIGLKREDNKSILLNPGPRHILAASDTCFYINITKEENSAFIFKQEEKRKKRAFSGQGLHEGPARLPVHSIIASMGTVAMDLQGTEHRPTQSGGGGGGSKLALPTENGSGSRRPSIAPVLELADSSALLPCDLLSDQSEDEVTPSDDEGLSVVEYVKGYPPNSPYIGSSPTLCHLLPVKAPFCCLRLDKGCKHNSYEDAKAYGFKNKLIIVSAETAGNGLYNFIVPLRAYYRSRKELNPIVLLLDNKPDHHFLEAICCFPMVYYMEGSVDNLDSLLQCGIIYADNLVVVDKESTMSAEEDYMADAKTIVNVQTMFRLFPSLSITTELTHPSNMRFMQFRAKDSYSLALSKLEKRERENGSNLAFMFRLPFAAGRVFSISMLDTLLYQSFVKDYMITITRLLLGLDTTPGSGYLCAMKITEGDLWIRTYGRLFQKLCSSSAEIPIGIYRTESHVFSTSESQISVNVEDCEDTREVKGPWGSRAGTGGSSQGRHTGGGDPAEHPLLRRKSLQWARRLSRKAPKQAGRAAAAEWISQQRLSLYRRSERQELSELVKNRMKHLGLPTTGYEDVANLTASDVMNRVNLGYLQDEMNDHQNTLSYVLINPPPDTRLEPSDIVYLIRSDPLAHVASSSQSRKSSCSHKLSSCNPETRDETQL
# ASSAY_OVERVIEW: KCNT1-WT-Basal Patch Clamp Assay
# PARTICULARS: tetracycline inducible cell line (HEK-TREX); SyncroPatch 384PE automated patch clamp, perforated patch mode, room temperature, step from -80 mV to 0 mV
For each of the compounds below, state its IC50.

Considering "C[C@H](NC(=O)C1CC2(CCC2)C1)c1nc(-c2ccnc(C3CC3)c2)no1" , its IC50 with KCNT1 (KNa1.1, Slack) (Homo sapiens, UniProt Q5JUK3) was recorded as ≤ 1000 nM

Considering "C[C@H](NC(=O)CN(C)c1ccccc1)c1nc(-c2ccnc(C(F)(F)F)c2)no1" , its IC50 with KCNT1 (KNa1.1, Slack) (Homo sapiens, UniProt Q5JUK3) was recorded as ≤ 1000 nM

Considering "C[C@H](NC(=O)[C@H]1CC[C@@H](C)CC1)c1nc(-c2ccnc(C3CC3)c2)no1" , its IC50 with KCNT1 (KNa1.1, Slack) (Homo sapiens, UniProt Q5JUK3) was recorded as ≤ 1000 nM

Considering COC1CCC(C(=O)N[C@@H](C)c2nc(-c3ccnc(C(F)(F)F)c3)no2)CC1 (some centres unmarked) , its IC50 with KCNT1 (KNa1.1, Slack) (Homo sapiens, UniProt Q5JUK3) was recorded as 1000 to 20000 nM

Considering "C[C@H](NC(=O)c1cccc(C(N)=O)c1)c1nc(-c2ccnc(C3CC3)c2)no1" , its IC50 with KCNT1 (KNa1.1, Slack) (Homo sapiens, UniProt Q5JUK3) was recorded as 1000 to 20000 nM

Considering "C[C@H](NC(=O)c1cccc(Cl)c1)c1nc(-c2ccnc(C3CC3)c2)no1" , its IC50 with KCNT1 (KNa1.1, Slack) (Homo sapiens, UniProt Q5JUK3) was recorded as ≤ 1000 nM

Considering "C[C@H](NC(=O)c1cccc(S(C)(=O)=O)c1)c1nc(-c2ccnc(C3CC3)c2)no1" , its IC50 with KCNT1 (KNa1.1, Slack) (Homo sapiens, UniProt Q5JUK3) was recorded as ≤ 1000 nM

Considering "C[C@H](NC(=O)N1CCCc2ccccc21)c1nc(-c2ccnc(C3CC3)c2)no1" , its IC50 with KCNT1 (KNa1.1, Slack) (Homo sapiens, UniProt Q5JUK3) was recorded as ≤ 1000 nM

Considering "CCOc1cc(-c2noc([C@H](C)NC(=O)c3ccccc3)n2)ccn1" , its IC50 with KCNT1 (KNa1.1, Slack) (Homo sapiens, UniProt Q5JUK3) was recorded as ≤ 1000 nM

Considering "Cc1oncc1C(=O)N[C@@H](C)c1nc(-c2ccnc(C(F)(F)F)c2)no1" , its IC50 with KCNT1 (KNa1.1, Slack) (Homo sapiens, UniProt Q5JUK3) was recorded as 1000 to 20000 nM

Considering "C[C@H](NC(=O)c1cccc(C#N)c1)c1nc(-c2ccnc(C3CC3)c2)no1" , its IC50 with KCNT1 (KNa1.1, Slack) (Homo sapiens, UniProt Q5JUK3) was recorded as ≤ 1000 nM

Considering "C[C@H](NC(=O)N1CCOc2ccccc21)c1nc(-c2ccnc(C3CC3)c2)no1" , its IC50 with KCNT1 (KNa1.1, Slack) (Homo sapiens, UniProt Q5JUK3) was recorded as ≤ 1000 nM

Considering "C[C@H](NC(=O)c1nc(-c2ccccc2)nn1C)c1nc(-c2cccc(F)c2)no1" , its IC50 with KCNT1 (KNa1.1, Slack) (Homo sapiens, UniProt Q5JUK3) was recorded as ≥ 20000 nM

Considering "C[C@H](NC(=O)[C@H]1CC[C@H](C)CC1)c1nc(-c2ccnc(C(F)(F)F)c2)no1" , its IC50 with KCNT1 (KNa1.1, Slack) (Homo sapiens, UniProt Q5JUK3) was recorded as ≤ 1000 nM

Considering "C[C@H](NC(=O)c1ccc(S(=O)(=O)C2CC2)s1)c1nc(-c2ccnc(C3CC3)c2)no1" , its IC50 with KCNT1 (KNa1.1, Slack) (Homo sapiens, UniProt Q5JUK3) was recorded as ≤ 1000 nM

Considering CC1CCC(C(=O)N[C@@H](C)c2nc(-c3ccnc(C(F)(F)F)c3)no2)CC1 (some centres unmarked) , its IC50 with KCNT1 (KNa1.1, Slack) (Homo sapiens, UniProt Q5JUK3) was recorded as ≤ 1000 nM

Considering "C[C@H](NC(=O)CN1CCCCC1)c1nc(-c2ccnc(C(F)(F)F)c2)no1" , its IC50 with KCNT1 (KNa1.1, Slack) (Homo sapiens, UniProt Q5JUK3) was recorded as ≥ 20000 nM
